Test system: SW-620
Assay: NCI tumour cell line growth inhibition, 48 h
Active and inactive are the calls of the source. Rule as the data show it: active = GI50 up to about 1.1 µM and inactive = higher.
Entry note: the call must match one of active, inactive

Inquiry: // outcome(item) with item = COc1ccc2c(Cl)cc(NC(=S)Nc3ccccc3)nc2c1
Reply text: inactive

Inquiry: // outcome(item) with item = CCN1C(=O)c2ccccc2C1(O)c1ccc(Cl)cc1 (stereo unspecified)
Reply text: inactive

Inquiry: // outcome(item) with item = O=C(O)C(CCc1ccccc1)N1C(=O)c2ccccc2C1=O (stereo unspecified)
Reply text: inactive

Inquiry: // outcome(item) with item = CC1(C)CC2C=C(C=O)C3(C=O)CC3(C)C2C1 (stereo unspecified)
Reply text: active

Inquiry: // outcome(item) with item = c1ccc(-c2cn3nc(N4CCOCC4)sc3n2)cc1
Reply text: inactive

Inquiry: // outcome(item) with item = COc1ccc2c(c1)CCc1c-2n(CCN2CCCCC2)c2ccc(OC)cc12
Reply text: inactive

Inquiry: // outcome(item) with item = CC(C)c1cc(C(C)C)c(S(=O)(=O)NN)c(C(C)C)c1
Reply text: inactive

Inquiry: // outcome(item) with item = COC(=O)[C@@H]1CCCCC[C@H]2C(CO)=C(C)C(=O)C12 (stereo partly specified)
Reply text: inactive

Inquiry: // outcome(item) with item = O=C(CC(=O)N1N=C(c2ccccc2)C(/N=N/c2ccc(S(=O)(=O)CCOS(=O)(=O)O)cc2)C1=O)Nc1ccc(Cl)cc1 (stereo unspecified)
Reply text: inactive

Inquiry: // outcome(item) with item = OCC1OC(n2ccc3cnccc32)CC1O (stereo unspecified)
Reply text: inactive

Inquiry: // outcome(item) with item = COc1ccc(NC(=O)CC(=O)N/N=C(\C)c2cc3ccccc3oc2=O)cc1
Reply text: inactive

Inquiry: // outcome(item) with item = CO[C@@]1(c2ccccc2)O[C@H]2OCCC2[C@H]1c1ccc(Cl)cc1 (stereo partly specified)
Reply text: inactive

Inquiry: // outcome(item) with item = COC(=O)C1CC(=O)CCC1c1ccccc1 (stereo unspecified)
Reply text: inactive

Inquiry: // outcome(item) with item = O=C1NC(=O)C(=Cc2c3ccccc3cc3ccccc23)C(=O)N1
Reply text: inactive

Inquiry: // outcome(item) with item = CCCCCCCCCCCCCCCC(=O)NCC(COP(=O)([O-])OCC[N+](C)(C)C)OCC (stereo unspecified)
Reply text: inactive

Inquiry: // outcome(item) with item = CCn1c2ccc(C(=O)CCCN3CCCCC3)cc2c2cc(C(=O)CCCN3CCCCC3)ccc21
Reply text: active

Inquiry: // outcome(item) with item = Cc1nc2sccn2c1C(=O)NN
Reply text: inactive

Inquiry: // outcome(item) with item = NC(CCCCNC(=O)CNC(=O)OCc1ccccc1)C(=O)NC(CCCCNC(=O)CNC(=O)OCc1ccccc1)C(=O)NC(CCCCNC(=O)CNC(=O)OCc1ccccc1)C(=O)NC(CCCCNC(=O)CNC(=O)OCc1ccccc1)C(=O)NC(CCCCNC(=O)CNC(=O)OCc1ccccc1)C(=O)NC(CCCCNC(=O)CNC(=O)OCc1ccccc1)C(=O)O (stereo unspecified)
Reply text: inactive

Inquiry: // outcome(item) with item = CSc1ncnc2c1cnn2Cc1cn(COCCO)nn1
Reply text: inactive

Inquiry: // outcome(item) with item = COC(=O)C1(C(=O)OC)Cc2ccc(C)cc2C2=C1C(=O)c1ccccc1C2=O
Reply text: inactive

Inquiry: // outcome(item) with item = CC(=O)NNc1nc(C)c(C(=O)NNC(=O)C(=O)Nc2c(Cl)cc([N+](=O)[O-])cc2Cl)s1
Reply text: inactive

These entries and their values trace back to ChEMBL document CHEMBL1201862.
